Each record here notes measured pKd.
Molecular target: T1, EsCas13d, nuclease-dead (Eubacterium siraeum, UniProt B0MS50, R295A;H300A;R849A;H854A)
T1 sequence: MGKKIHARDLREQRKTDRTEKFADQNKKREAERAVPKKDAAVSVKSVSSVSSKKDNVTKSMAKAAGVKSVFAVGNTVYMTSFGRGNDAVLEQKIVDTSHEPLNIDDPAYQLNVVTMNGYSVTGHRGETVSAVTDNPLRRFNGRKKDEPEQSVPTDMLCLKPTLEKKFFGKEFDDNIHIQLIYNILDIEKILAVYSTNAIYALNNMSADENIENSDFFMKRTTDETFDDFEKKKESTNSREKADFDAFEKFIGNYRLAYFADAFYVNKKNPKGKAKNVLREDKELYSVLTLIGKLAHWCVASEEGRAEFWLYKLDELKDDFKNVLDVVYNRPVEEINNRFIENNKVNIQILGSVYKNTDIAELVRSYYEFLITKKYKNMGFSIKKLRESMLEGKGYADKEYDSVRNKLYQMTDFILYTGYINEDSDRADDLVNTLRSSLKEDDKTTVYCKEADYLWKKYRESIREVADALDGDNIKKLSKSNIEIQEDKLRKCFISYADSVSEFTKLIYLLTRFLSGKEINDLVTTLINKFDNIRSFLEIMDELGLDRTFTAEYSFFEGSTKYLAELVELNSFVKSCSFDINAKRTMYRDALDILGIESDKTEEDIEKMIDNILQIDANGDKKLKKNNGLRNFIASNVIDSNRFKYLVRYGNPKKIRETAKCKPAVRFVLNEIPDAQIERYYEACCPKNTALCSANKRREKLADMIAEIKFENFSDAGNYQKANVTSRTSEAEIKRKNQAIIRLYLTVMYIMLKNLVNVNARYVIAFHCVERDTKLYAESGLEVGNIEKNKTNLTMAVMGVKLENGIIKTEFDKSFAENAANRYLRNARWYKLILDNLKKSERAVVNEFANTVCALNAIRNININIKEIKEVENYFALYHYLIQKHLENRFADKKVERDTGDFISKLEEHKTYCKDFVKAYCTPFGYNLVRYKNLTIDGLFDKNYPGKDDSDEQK
Assay: crRNA (strand 1, pre-loaded); Mg2+; 40 mM Tris-HCl pH 7.5, 150 mM NaCl, 6 mM MgCl2, 1 mM DTT, 0.1% Tween-20, 0.2 mg/ml BSA; 25 C; 10 min per concentration, then washed
Conditions: tags: His6-TwinStrep-SUMO cleaved; N-terminal SNAP kept (SNAP-Surface 488); label: 3' end held by stalled T7 RNA polymerase
Reminder that pKd means the negative base-10 logarithm of the concentration expressed in mol/L.

target 2 MT 5'PFS GUG 3'PFS CCG (mixed) RNA 1: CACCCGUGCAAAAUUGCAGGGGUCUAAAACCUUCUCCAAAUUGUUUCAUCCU RNA 2: GGGAAUGGAUCCACAUCUACGAAUUCGUGAGGAUGAAACAAUUUGGAGAAGCCGAGAUCGGAAGAGCACACGU: 7.87

pKd in this record for target 1 insU 3' of 22,insG 3' of 4 (mixed) RNA 1: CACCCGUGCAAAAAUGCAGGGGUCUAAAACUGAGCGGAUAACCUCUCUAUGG RNA 2: GGGAAUGGAUCCACAUCUACGAAUUCGUACUCAUAGAGAGGUUAUCCGCGUCACCGAGAUCGGAAGAGCACACGU : 7.65

pKd for target 3 U7G,U22A (mixed) RNA 1: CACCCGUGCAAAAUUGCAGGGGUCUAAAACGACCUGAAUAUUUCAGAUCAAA RNA 2: GGGAAUGGAUCCACAUCUACGAAUUCGUUAUUGAUCUGAAAUAUGCAGGUCUGCAGAUCGGAAGAGCACACGU is 7.39

Short answer for target 1 C2G,G17C (mixed) RNA 1: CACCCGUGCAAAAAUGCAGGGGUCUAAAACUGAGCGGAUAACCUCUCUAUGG RNA 2: GGGAAUGGAUCCACAUCUACGAAUUCGUACCAUACAGAGGUUAUCCGCUGACCGAGAUCGGAAGAGCACACGU : pKd was 7.30

For record target 3 U2A,G4A (mixed) RNA 1: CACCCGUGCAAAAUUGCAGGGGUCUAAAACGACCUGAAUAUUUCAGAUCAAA RNA 2: GGGAAUGGAUCCACAUCUACGAAUUCGUUUUUGAUCUGAAAUAUUCAAGACUGCAGAUCGGAAGAGCACACGU the listed pKd is 8.51

Briefly, pKd measured for target 1 C6G,U10G (mixed) RNA 1: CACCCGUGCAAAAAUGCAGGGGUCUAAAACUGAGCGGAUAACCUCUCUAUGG RNA 2: GGGAAUGGAUCCACAUCUACGAAUUCGUACCAUAGAGAGGUGAUCGGCUCACCGAGAUCGGAAGAGCACACGU : 7.82

pKd for target 1 del2,del8 (mixed) RNA 1: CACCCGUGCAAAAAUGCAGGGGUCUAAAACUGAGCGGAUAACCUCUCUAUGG RNA 2: GGGAAUGGAUCCACAUCUACGAAUUCGUACCAUAGAGAGGUUACCGCUACCGAGAUCGGAAGAGCACACGU is 8.00

Form: binder = target 1 insA 3' of 10,insA 3' of 5 (mixed) RNA 1: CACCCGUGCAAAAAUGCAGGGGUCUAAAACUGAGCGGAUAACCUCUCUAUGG RNA 2: GGGAAUGGAUCCACAUCUACGAAUUCGUACCAUAGAGAGGUUAAUCCGACUCACCGAGAUCGGAAGAGCACACGU ; pKd = 8.24
